This document collects log10 IC50 values reported for human serotonin transporter (Homo sapiens).
Kindly note that the scale is log10 and the underlying IC50 is in nM.

- SMILES STRUCTURE: "CN1CC[C@]2(c3ccc(OCC4CC4)c(O)c3)CCC(=O)C[C@H]12"
  EXPERIMENTAL TARGET: "human serotonin transporter (Homo sapiens)"
  log10 IC50: 3.32
- SMILES STRUCTURE: "C=CCOc1cc([C@@]23CCC(=O)C[C@@H]2N(C)CC3)ccc1OC"
  EXPERIMENTAL TARGET: "human serotonin transporter (Homo sapiens)"
  log10 IC50: 1.30
- SMILES STRUCTURE: "CN1CC[C@]2(c3ccc(OCC4CC4)c(OCC4CC4)c3)CCC(=O)C[C@H]12"
  EXPERIMENTAL TARGET: "human serotonin transporter (Homo sapiens)"
  log10 IC50: 2.60

Each compound below has a reported value. Please supply its log10 IC50.
1. CCOc1ccc([C@@]23CCC(=O)C[C@@H]2N(C)CC3)cc1OCC
2. CCCCOc1cc([C@@]23CCC(=O)C[C@@H]2N(C)CC3)ccc1OC
3. C=CCOc1cc([C@@]23CCC(=O)C[C@@H]2N(C)CC3)ccc1OCC1CC1

Result:
1.48
1.48
2.60

Please give log10 IC50 for each item listed below.
1. CN1CC[C@]2(c3ccc(OCC4CC4)c(OC4CCCC4)c3)CCC(=O)C[C@H]12
2. COc1ccc([C@@]23CCC(=O)C[C@@H]2N(C)CC3)cc1OCC(F)F

Result:
1. 3.65
2. 1.30

----------
- EXPERIMENTAL TARGET: PDE-4A1A (Homo sapiens)
- Construct: purchased Sigma SRP0262
- Sequence (P27815 1-647 isoform P27815-4): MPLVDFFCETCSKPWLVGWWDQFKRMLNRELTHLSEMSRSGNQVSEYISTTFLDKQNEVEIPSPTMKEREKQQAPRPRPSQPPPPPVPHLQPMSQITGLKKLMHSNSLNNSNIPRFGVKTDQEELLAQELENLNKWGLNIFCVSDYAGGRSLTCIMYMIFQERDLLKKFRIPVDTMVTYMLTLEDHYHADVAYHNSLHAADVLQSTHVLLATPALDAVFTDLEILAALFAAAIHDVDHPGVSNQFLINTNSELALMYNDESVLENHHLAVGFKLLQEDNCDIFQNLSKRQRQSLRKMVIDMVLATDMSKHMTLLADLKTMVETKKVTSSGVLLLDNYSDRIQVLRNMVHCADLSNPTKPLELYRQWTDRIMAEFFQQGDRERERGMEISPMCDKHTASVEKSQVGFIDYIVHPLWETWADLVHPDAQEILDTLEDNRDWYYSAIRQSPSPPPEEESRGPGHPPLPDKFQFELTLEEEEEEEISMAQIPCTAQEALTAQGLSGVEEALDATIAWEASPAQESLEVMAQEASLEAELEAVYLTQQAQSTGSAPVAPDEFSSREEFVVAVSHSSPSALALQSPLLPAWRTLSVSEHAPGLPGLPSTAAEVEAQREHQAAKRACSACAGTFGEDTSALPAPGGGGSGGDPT
- METHOD DESCRIPTION: PDE-41A assay (Compounds of Formula II), AMP-Glo
- Assay type: biochemical
- Experimental: PDE-41A assays were performed using the AMP-Glo™ Assay Kit, (Promega-V5012) human recombinant […] (Sigma, SRP0262) according to recommended protocols. […]
Assignment: determine reported inhibition at 100 µM for the given molecules.
One number for each entry, in %.

For orientation, consider the following solved cases.
- MOLECULE: "COc1ccc([C@@]23C=C[C@@H](OC(=O)C(C)N)C[C@@H]2N(C)CC3)cc1OC (some centres unmarked) [Compound 57]"
  QUANTITY: "inhibition at 100 µM"
  MEASURED: 102
- MOLECULE: "COc1ccc([C@@]23CC[C@@H](OC(=O)CCC(=O)O)C[C@@H]2N(C)CC3)cc1OC [Compound 46]"
  QUANTITY: "inhibition at 100 µM"
  MEASURED: 79
- MOLECULE: "COc1ccc([C@@]23CC[C@@H](OC(=O)CCCC(=O)O)C[C@@H]2N(C)CC3)cc1OC [Compound 47]"
  QUANTITY: "inhibition at 100 µM"
  MEASURED: 88
- MOLECULE: "CCC(=O)O[C@@H]1CC[C@@]2(c3ccc(OC)c(OC)c3)CCN(C)[C@H]2C1 [Compound 50]"
  QUANTITY: "inhibition at 100 µM"
  MEASURED: 101

Quick batch: inhibition at 100 µM for everything below.
1. COc1ccc([C@@]23C=C[C@@H](OC(=O)c4ccc[nH]4)C[C@@H]2N(C)CC3)cc1OC [Compound 61]
2. COc1ccc([C@@]23C=C[C@@H](OC(=O)CCC(=O)O)C[C@@H]2N(C)CC3)cc1OC [Compound 54]
3. COc1ccc([C@@]23C=C[C@@H](OC(=O)c4ccccc4)C[C@@H]2N(C)CC3)cc1OC [Compound 60]
4. COc1ccc([C@@]23CC[C@@H](OC(=O)c4ccc[nH]4)C[C@@H]2N(C)CC3)cc1OC [Compound 53]

Result:
1. 90
2. 101
3. 100
4. 97
